Reference source: a melting point compilation (Tetko et al.; mined from patent text by program, amines drawn as free bases though some values may be those of a salt)

Known melting point of a selection of compounds

Check out these entries, answers already filled in.
INSERT INTO results (compound, measured_endpoint, data_value) VALUES
  ('COc1ccc2c(c1)CCc1nn(-c3ccccn3)c(O)c1-2', 'melting point', '139 to 140 °C'),
  ('Cc1c(NC(=O)C(CSC(=O)C2CCCCC2)Cc2ccccc2)cccc1C(=O)O (stereo not given)', 'melting point', '117 to 120 °C'),
  ('COC(=O)c1ccc(OCC2CCCCC2)cc1', 'melting point', '62 to 63 °C'),
  ('Cc1ccc(Br)cc1-n1nc(-c2ccc(O)cc2O)c2ccc(O)cc21', 'melting point', '88 to 91 °C'),
  ('O=C(N[C@H]1CC[C@H](CCN2CCC(c3cccc4c3CCO4)CC2)CC1)c1ccc(N2CCCCC2)cc1', 'melting point', '248 °C'),
  ('O=C1COc2cc(NC(=O)C(=O)N3CCC(Cc4ccc(F)cc4)CC3)ccc2N1', 'melting point', '209 to 212 °C'),
  ('CC1=C(C(=O)O)C(c2ccccc2[N+](=O)[O-])C(C(=O)OCCC#N)=C(C)N1 (stereo not given)', 'melting point', '132 to 134 °C'),
  ('CCCCCCCCOc1ccc(C(=O)OC(C)c2cc3c(s2)-n2c(C)nnc2CN=C3c2ccccc2Cl)cc1 (stereo not given)', 'melting point', '56 to 61 °C'),
  ('Clc1cccc(Nc2nccc(Cl)n2)c1', 'melting point', '112 to 114 °C'),
  ('Oc1cccc(-c2nn(C3CCCC3)c3c(Cl)cccc23)c1F', 'melting point', '150 to 151 °C');

# compound COc1ccc2c(c1)c1c(n2C)C2(C)CCC(=O)N2CC1 (stereo not given) ; its melting point = 164 to 167 °C

# compound O=C(CCCCN1CCCCC1)c1ccc2c(c1)Cc1cc(C(=O)CCCCN3CCCCC3)ccc1-2 ; its melting point = 124 to 127 °C

# compound COc1ccc(NC=C(C#N)C(=O)Nc2cc(OC)c(Cl)cc2Cl)cc1F ; its melting point = 275 to 276 °C

# compound COc1ccc2cc(-c3cc4ccccc4o3)ccc2c1 ; its melting point = 194 to 195 °C

# compound CC(C)(C)NS(=O)(=O)c1c[nH]c2ccccc12 ; its melting point = 157 to 158 °C

# compound Nc1ccc(Br)cc1C(=O)c1ccccc1 ; its melting point = 109 to 110 °C

###

Known melting point of a selection of compounds

INSERT INTO measurements (compound, measured_endpoint, data_value) VALUES
  ('OCCCCCc1ccc2ccccc2c1O', 'melting point', '43 to 46 °C'),
  ('COc1cc(C(=O)N2CCc3nnc(NN)cc3C2)cc(OC)c1OC', 'melting point', '194 to 197 °C'),
  ('O=C1c2ccccc2C(=O)N1CC(=O)N1c2ccccc2N(CCc2ccccc2)C(=O)[C@H]2CCC[C@H]21 (relative stereo)', 'melting point', '178 to 179 °C');

Next, consider the following compound.
# compound CN(C)C(=O)n1c(CN2CCN(c3ccccn3)CC2)nc2ccccc21 ; its melting point = 174 to 176 °C

###

Known melting point of a selection of molecules

INSERT INTO measurements (molecule, data_value) VALUES
  ('CC(=O)c1ccc(N2CCN(CCC(=O)O)CC2)cc1', '204 to 206 °C');

# molecule CCCOc1ccc(C2=NN(C(=S)Nc3ccc(C(F)(F)F)cc3)CC2NCC(=O)OC)cc1 (stereo unspecified) ; its melting point = 167 to 169 °C

# molecule COc1cc(C(=O)c2c[nH]c(-c3cn(S(=O)(=O)c4ccccc4)c4ccccc34)n2)cc(OC)c1OC ; its melting point = 110 to 112 °C

# molecule NC(=O)c1c(N)n[nH]c1N1CCN(Cc2ccccc2)CC1 ; its melting point = 234 to 236 °C

# molecule COC(=O)COc1cccc2c1CCC(Br)C2=O (stereo unspecified) ; its melting point = 76 to 77 °C

# molecule CCCC(CCC)C(=O)c1ccc(O)c(C(=O)O)c1 ; its melting point = 118 °C
